# Test system: 556581-035-R-J1-PDC spheroids with HUVEC/MSC, viability
# measurement_description: Anticancer human tumor 556581-035-R-J1-PDC patient-derived ovarian carcinoma cell line growth inhibition [IpAb]
# measurement_setup: second compound 0.316 µM; first compound 0.316 µM; hits give low values
Label scheme, based on viability, T/C: zone 1 (below 40%), zone 2 (40% to below 70%), zone 3 (70% or more)

compound: C=CC(=O)N1CCN(c2nc(=O)n(-c3c(C)ccnc3C(C)C)c3nc(-c4c(O)cccc4F)c(F)cc23)C(C)C1 (stereo unspecified) + CCN1CCN(Cc2ccc(Nc3ncc(F)c(-c4cc(F)c5nc(C)n(C(C)C)c5c4)n3)nc2)CC1
tested_target: 556581-035-R-J1-PDC spheroids with HUVEC/MSC, viability
answer_label: zone 3
--
compound: CCCS(=O)(=O)Nc1ccc(F)c(C(=O)c2c[nH]c3ncc(-c4ccc(Cl)cc4)cc23)c1F + CCN1CCN(Cc2ccc(Nc3ncc(F)c(-c4cc(F)c5nc(C)n(C(C)C)c5c4)n3)nc2)CC1
tested_target: 556581-035-R-J1-PDC spheroids with HUVEC/MSC, viability
answer_label: zone 3
--
compound: Cn1nccc1Nc1nccc(-c2ccn(C(CO)c3ccc(Cl)c(F)c3)c(=O)c2)n1 (stereo unspecified) + CC(C)NCC(C(=O)N1CCN(c2ncnc3c2C(C)CC3O)CC1)c1ccc(Cl)cc1
tested_target: 556581-035-R-J1-PDC spheroids with HUVEC/MSC, viability
answer_label: zone 2
--
compound: COc1c(OCCCN2CCOCC2)ccc2c3n(c(=NC(=O)c4cnc(N)nc4)nc12)CCN3 + CCN1CCN(Cc2ccc(Nc3ncc(F)c(-c4cc(F)c5nc(C)n(C(C)C)c5c4)n3)nc2)CC1
tested_target: 556581-035-R-J1-PDC spheroids with HUVEC/MSC, viability
answer_label: zone 1
--
compound: C=CC(=O)N1CCN(c2nc(=O)n(-c3c(C)ccnc3C(C)C)c3nc(-c4c(O)cccc4F)c(F)cc23)C(C)C1 (stereo unspecified) + CC(C)NCC(C(=O)N1CCN(c2ncnc3c2C(C)CC3O)CC1)c1ccc(Cl)cc1
tested_target: 556581-035-R-J1-PDC spheroids with HUVEC/MSC, viability
answer_label: zone 3

Exercise: For Cn1ncc(Cl)c1-c1cc(C(=O)NC(CN)Cc2cccc(F)c2)sc1Cl (stereo unspecified) + CC(C)NCC(C(=O)N1CCN(c2ncnc3c2C(C)CC3O)CC1)c1ccc(Cl)cc1 , which viability, T/C bin applies?
Solution: zone 2

Exercise: And COc1c(OCCCN2CCOCC2)ccc2c3n(c(=NC(=O)c4cnc(N)nc4)nc12)CCN3 + CC(C)NCC(C(=O)N1CCN(c2ncnc3c2C(C)CC3O)CC1)c1ccc(Cl)cc1 ?
Solution: zone 1

Exercise: // next record CC1(C)CCC(CN2CCN(c3ccc(C(=O)NS(=O)(=O)c4ccc(NCC5CCOCC5)c([N+](=O)[O-])c4)c(Oc4cnc5[nH]ccc5c4)c3)CC2)=C(c2ccc(Cl)cc2)C1 + CCN1CCN(Cc2ccc(Nc3ncc(F)c(-c4cc(F)c5nc(C)n(C(C)C)c5c4)n3)nc2)CC1
Solution: zone 3

Exercise: Ok, now C=CCn1c(=O)c2cnc(Nc3ccc(N4CCN(C)CC4)cc3)nc2n1-c1cccc(C(C)(C)O)n1 + CC(C)NCC(C(=O)N1CCN(c2ncnc3c2C(C)CC3O)CC1)c1ccc(Cl)cc1
Solution: zone 1

Exercise: Same question for Cn1nccc1Nc1nccc(-c2ccn(C(CO)c3ccc(Cl)c(F)c3)c(=O)c2)n1 (stereo unspecified) + CCN1CCN(Cc2ccc(Nc3ncc(F)c(-c4cc(F)c5nc(C)n(C(C)C)c5c4)n3)nc2)CC1 please.
Solution: zone 3

Exercise: Now the compound C=CCn1c(=O)c2cnc(Nc3ccc(N4CCN(C)CC4)cc3)nc2n1-c1cccc(C(C)(C)O)n1 + CCN1CCN(Cc2ccc(Nc3ncc(F)c(-c4cc(F)c5nc(C)n(C(C)C)c5c4)n3)nc2)CC1
Solution: zone 1

Exercise: Same thing, different compound: CC1(C)CCC(CN2CCN(c3ccc(C(=O)NS(=O)(=O)c4ccc(NCC5CCOCC5)c([N+](=O)[O-])c4)c(Oc4cnc5[nH]ccc5c4)c3)CC2)=C(c2ccc(Cl)cc2)C1 + CC(C)NCC(C(=O)N1CCN(c2ncnc3c2C(C)CC3O)CC1)c1ccc(Cl)cc1
Solution: zone 3

Exercise: Try this compound next: Cn1ncc(Cl)c1-c1cc(C(=O)NC(CN)Cc2cccc(F)c2)sc1Cl (stereo unspecified) + CCN1CCN(Cc2ccc(Nc3ncc(F)c(-c4cc(F)c5nc(C)n(C(C)C)c5c4)n3)nc2)CC1
Solution: zone 2

====

# Tested on: 556581-035-R-J1-PDC spheroids with HUVEC/MSC, viability
# measurement_description: Anticancer human tumor 556581-035-R-J1-PDC cell line growth inhibition [IpAb];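 further: spheroids exposed to compounds for 7 days before readout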
# measurement_setup: second compound 10 µM; first compound 10 µM; hits give low values
Field: label. Allowed values: Met (viability, T/C < 5%) or Not met (viability, T/C >= 5%).

compound: CCCS(=O)(=O)Nc1ccc(F)c(C(=O)c2c[nH]c3ncc(-c4ccc(Cl)cc4)cc23)c1F + CC(C)NCC(C(=O)N1CCN(c2ncnc3c2C(C)CC3O)CC1)c1ccc(Cl)cc1
answer_label: Not met
//
compound: CC1(C)CCC(CN2CCN(c3ccc(C(=O)NS(=O)(=O)c4ccc(NCC5CCOCC5)c([N+](=O)[O-])c4)c(Oc4cnc5[nH]ccc5c4)c3)CC2)=C(c2ccc(Cl)cc2)C1 + CC(C)NCC(C(=O)N1CCN(c2ncnc3c2C(C)CC3O)CC1)c1ccc(Cl)cc1
answer_label: Met
//
compound: Cc1nc(NC(=O)N2CCCC2C(N)=O)sc1-c1ccnc(C(C)(C)C(F)(F)F)c1 (configuration not stated) + CC(C)NCC(C(=O)N1CCN(c2ncnc3c2C(C)CC3O)CC1)c1ccc(Cl)cc1
answer_label: Met
//
compound: Cn1nccc1Nc1nccc(-c2ccn(C(CO)c3ccc(Cl)c(F)c3)c(=O)c2)n1 (configuration not stated) + CC(C)NCC(C(=O)N1CCN(c2ncnc3c2C(C)CC3O)CC1)c1ccc(Cl)cc1
answer_label: Met
//
compound: Cn1ncc(Cl)c1-c1cc(C(=O)NC(CN)Cc2cccc(F)c2)sc1Cl (configuration not stated) + CC(C)NCC(C(=O)N1CCN(c2ncnc3c2C(C)CC3O)CC1)c1ccc(Cl)cc1
answer_label: Met

Exercise: Determine if C=CC(=O)N1CCN(c2nc(=O)n(-c3c(C)ccnc3C(C)C)c3nc(-c4c(O)cccc4F)c(F)cc23)C(C)C1 (configuration not stated) + CC(C)NCC(C(=O)N1CCN(c2ncnc3c2C(C)CC3O)CC1)c1ccc(Cl)cc1 shows viability, T/C strictly lower than 5%.
Solution: Not met

Exercise: Please give the result for C=CCn1c(=O)c2cnc(Nc3ccc(N4CCN(C)CC4)cc3)nc2n1-c1cccc(C(C)(C)O)n1 + CC(C)NCC(C(=O)N1CCN(c2ncnc3c2C(C)CC3O)CC1)c1ccc(Cl)cc1 too.
Solution: Not met

====

# Tested on: 556581-035-R-J1-PDC spheroids with HUVEC/MSC, viability
# measurement_description: Anticancer human tumor 556581-035-R-J1-PDC cell line growth inhibition [IpAb];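 further: spheroids exposed to compounds for 7 days before readout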
# measurement_setup: second compound 0.0316 µM; first compound 10 µM; hits give low values
Below: a set of entries, each annotated with reported viability, T/C.
Value expressed in %; do not type the unit.

Check out these entries, answers already filled in.
compound: Cc1nc(NC(=O)N2CCCC2C(N)=O)sc1-c1ccnc(C(C)(C)C(F)(F)F)c1 (centres undefined) + CCN1CCN(Cc2ccc(Nc3ncc(F)c(-c4cc(F)c5nc(C)n(C(C)C)c5c4)n3)nc2)CC1
viability, T/C / %: 9.58
//
compound: Cn1nccc1Nc1nccc(-c2ccn(C(CO)c3ccc(Cl)c(F)c3)c(=O)c2)n1 (centres undefined) + CCN1CCN(Cc2ccc(Nc3ncc(F)c(-c4cc(F)c5nc(C)n(C(C)C)c5c4)n3)nc2)CC1
viability, T/C / %: 34.8

Exercise: Reported viability, T/C, compound C=CC(=O)N1CCN(c2nc(=O)n(-c3c(C)ccnc3C(C)C)c3nc(-c4c(O)cccc4F)c(F)cc23)C(C)C1 (centres undefined) + CCN1CCN(Cc2ccc(Nc3ncc(F)c(-c4cc(F)c5nc(C)n(C(C)C)c5c4)n3)nc2)CC1 : ____
Solution: 29.7

Exercise: // next record CC1(C)CCC(CN2CCN(c3ccc(C(=O)NS(=O)(=O)c4ccc(NCC5CCOCC5)c([N+](=O)[O-])c4)c(Oc4cnc5[nH]ccc5c4)c3)CC2)=C(c2ccc(Cl)cc2)C1 + CCN1CCN(Cc2ccc(Nc3ncc(F)c(-c4cc(F)c5nc(C)n(C(C)C)c5c4)n3)nc2)CC1
Solution: 23.7

====

# System: 556581-035-R-J1-PDC spheroids with HUVEC/MSC, viability
# measurement_description: Anticancer human tumor 556581-035-R-J1-PDC cell line growth inhibition [IpAb];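 further: spheroids exposed to compounds for 7 days before readout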
# measurement_setup: second compound 0.316 µM; first compound 0.0316 µM; hits give low values
# Experimental: Combinatorial screen of targeted agents with ipatasertib and abemaciclib in multi-cell type tumor spheroids […] Compounds. […] If the clinical Cmax for an agent had not been determined, the highest concentration tested was 10 microM. NCI60 Cell Culture. […] The optimal seeding densities for each of the cell lines at each time point assessed were determined prior to performing the concentration response studies. […]
With a cut-off of 60%, any viability, T/C strictly below it is called class 1; any viability, T/C meeting it or above is called class 0.

molecule: Cn1ncnc1[C@H]1c2n[nH]c(=O)c3cc(F)cc(c23)N[C@@H]1c1ccc(F)cc1 + CC(C)NCC(C(=O)N1CCN(c2ncnc3c2C(C)CC3O)CC1)c1ccc(Cl)cc1
answer_label: class 0

Exercise: Bench note: check whether CC(C)n1nc(-c2ccc3oc(N)nc3c2)c2c(N)ncnc21 + CC(C)NCC(C(=O)N1CCN(c2ncnc3c2C(C)CC3O)CC1)c1ccc(Cl)cc1 shows viability, T/C below 60%
Solution: class 1

Exercise: Now this one: Cc1nc(NC(=O)N2CCCC2C(N)=O)sc1-c1ccnc(C(C)(C)C(F)(F)F)c1 (stereo not given) + CCN1CCN(Cc2ccc(Nc3ncc(F)c(-c4cc(F)c5nc(C)n(C(C)C)c5c4)n3)nc2)CC1
Solution: class 1

Exercise: Would you mind doing CC1(C)CCC(CN2CCN(c3ccc(C(=O)NS(=O)(=O)c4ccc(NCC5CCOCC5)c([N+](=O)[O-])c4)c(Oc4cnc5[nH]ccc5c4)c3)CC2)=C(c2ccc(Cl)cc2)C1 + CCN1CCN(Cc2ccc(Nc3ncc(F)c(-c4cc(F)c5nc(C)n(C(C)C)c5c4)n3)nc2)CC1 as well?
Solution: class 0

Exercise: Could you do the same for COc1c(OCCCN2CCOCC2)ccc2c3n(c(=NC(=O)c4cnc(N)nc4)nc12)CCN3 + CC(C)NCC(C(=O)N1CCN(c2ncnc3c2C(C)CC3O)CC1)c1ccc(Cl)cc1 , please?
Solution: class 1

Exercise: Follow-up entry: C=CC(=O)N1CCN(c2nc(=O)n(-c3c(C)ccnc3C(C)C)c3nc(-c4c(O)cccc4F)c(F)cc23)C(C)C1 (stereo not given) + CCN1CCN(Cc2ccc(Nc3ncc(F)c(-c4cc(F)c5nc(C)n(C(C)C)c5c4)n3)nc2)CC1
Solution: class 0

Exercise: Follow-up item: Cc1nc(NC(=O)N2CCCC2C(N)=O)sc1-c1ccnc(C(C)(C)C(F)(F)F)c1 (stereo not given) + CC(C)NCC(C(=O)N1CCN(c2ncnc3c2C(C)CC3O)CC1)c1ccc(Cl)cc1
Solution: class 0

Exercise: Next entry: CCCS(=O)(=O)Nc1ccc(F)c(C(=O)c2c[nH]c3ncc(-c4ccc(Cl)cc4)cc23)c1F + CC(C)NCC(C(=O)N1CCN(c2ncnc3c2C(C)CC3O)CC1)c1ccc(Cl)cc1
Solution: class 0

Exercise: And then Cn1nccc1Nc1nccc(-c2ccn(C(CO)c3ccc(Cl)c(F)c3)c(=O)c2)n1 (stereo not given) + CCN1CCN(Cc2ccc(Nc3ncc(F)c(-c4cc(F)c5nc(C)n(C(C)C)c5c4)n3)nc2)CC1 , what is it?
Solution: class 0
